Catalogue of kon readings, one per entry.
# assayed-system: T1, c-erbB-2 ECD with a Ser-Gly-His6 C-terminal fusion (UniProt P04626 23-652)
# T1 construct: extracellular domain; expressed from CHO cells, IMAC purified; coupled to a CM5 chip, adsorbed to polystyrene, or biotinylated and captured on avidin; also called c-erbB-2 extracellular domain; biotinylated c-erbB-2 ECD
# assay-overview: SPR (BIAcore)
test-readout: kon (M⁻¹ s⁻¹)

C6ML3-23 (scFv, C6.5 with this VL CDR3; C-terminal myc and His6 tags) scFv: QVQLLQSGAELKKPGESLKISCKGSGYSFTSYWIAWVRQMPGKGLEYMGLIYPGDSDTKYSPSFQGQVTISVDKSVSTAYLQWSSLKPSDSAVYFCARHDVGYCSSSNCAKWPEYFQHWGQGTLVTVSSGGGGSGGGGSGGGGSQSVLTQPPSVSAAPGQKVTISCSGSSSNIGNNYVSWYQQLPGTAPKLLIYGHTNRPAGVPDRFSGSKSGTSASLAISGFRSEDEADYYCASWDHSLWGWVFGGGTKLTVLG
670000
C6ML3-15 (scFv, C6.5 with this VL CDR3; C-terminal myc and His6 tags) scFv: QVQLLQSGAELKKPGESLKISCKGSGYSFTSYWIAWVRQMPGKGLEYMGLIYPGDSDTKYSPSFQGQVTISVDKSVSTAYLQWSSLKPSDSAVYFCARHDVGYCSSSNCAKWPEYFQHWGQGTLVTVSSGGGGSGGGGSGGGGSQSVLTQPPSVSAAPGQKVTISCSGSSSNIGNNYVSWYQQLPGTAPKLLIYGHTNRPAGVPDRFSGSKSGTSASLAISGFRSEDEADYYCAAWDRPLWGWVFGGGTKLTVLG
590000
C6ML3-8 (scFv, C6.5 with this VL CDR3; C-terminal myc and His6 tags) scFv: QVQLLQSGAELKKPGESLKISCKGSGYSFTSYWIAWVRQMPGKGLEYMGLIYPGDSDTKYSPSFQGQVTISVDKSVSTAYLQWSSLKPSDSAVYFCARHDVGYCSSSNCAKWPEYFQHWGQGTLVTVSSGGGGSGGGGSGGGGSQSVLTQPPSVSAAPGQKVTISCSGSSSNIGNNYVSWYQQLPGTAPKLLIYGHTNRPAGVPDRFSGSKSGTSASLAISGFRSEDEADYYCAAWDHLRWGWVFGGGTKLTVLG
650000
C6ML3-9 (scFv, C6.5 with this VL CDR3; C-terminal myc and His6 tags; parent of the VH CDR3 libraries; also called C6ML3-9 (wt); wt C6ML3-9) scFv: QVQLLQSGAELKKPGESLKISCKGSGYSFTSYWIAWVRQMPGKGLEYMGLIYPGDSDTKYSPSFQGQVTISVDKSVSTAYLQWSSLKPSDSAVYFCARHDVGYCSSSNCAKWPEYFQHWGQGTLVTVSSGGGGSGGGGSGGGGSQSVLTQPPSVSAAPGQKVTISCSGSSSNIGNNYVSWYQQLPGTAPKLLIYGHTNRPAGVPDRFSGSKSGTSASLAISGFRSEDEADYYCASWDYTLSGWVFGGGTKLTVLG
610000
C6ML3-12 (scFv, C6.5 with this VL CDR3; C-terminal myc and His6 tags) scFv: QVQLLQSGAELKKPGESLKISCKGSGYSFTSYWIAWVRQMPGKGLEYMGLIYPGDSDTKYSPSFQGQVTISVDKSVSTAYLQWSSLKPSDSAVYFCARHDVGYCSSSNCAKWPEYFQHWGQGTLVTVSSGGGGSGGGGSGGGGSQSVLTQPPSVSAAPGQKVTISCSGSSSNIGNNYVSWYQQLPGTAPKLLIYGHTNRPAGVPDRFSGSKSGTSASLAISGFRSEDEADYYCAAWDYSRSGWVFGGGTKLTVLG
450000
C6ML3-13 (scFv, C6.5 with this VL CDR3; C-terminal myc and His6 tags) scFv: QVQLLQSGAELKKPGESLKISCKGSGYSFTSYWIAWVRQMPGKGLEYMGLIYPGDSDTKYSPSFQGQVTISVDKSVSTAYLQWSSLKPSDSAVYFCARHDVGYCSSSNCAKWPEYFQHWGQGTLVTVSSGGGGSGGGGSGGGGSQSVLTQPPSVSAAPGQKVTISCSGSSSNIGNNYVSWYQQLPGTAPKLLIYGHTNRPAGVPDRFSGSKSGTSASLAISGFRSEDEADYYCAAWDATLWGWVFGGGTKLTVLG
870000
C6ML3-3 (scFv, C6.5 with this VL CDR3; C-terminal myc and His6 tags) scFv: QVQLLQSGAELKKPGESLKISCKGSGYSFTSYWIAWVRQMPGKGLEYMGLIYPGDSDTKYSPSFQGQVTISVDKSVSTAYLQWSSLKPSDSAVYFCARHDVGYCSSSNCAKWPEYFQHWGQGTLVTVSSGGGGSGGGGSGGGGSQSVLTQPPSVSAAPGQKVTISCSGSSSNIGNNYVSWYQQLPGTAPKLLIYGHTNRPAGVPDRFSGSKSGTSASLAISGFRSEDEADYYCATWDYALSGWVFGGGTKLTVLG
460000
C6ML3-11 (scFv, C6.5 with this VL CDR3; C-terminal myc and His6 tags) scFv: QVQLLQSGAELKKPGESLKISCKGSGYSFTSYWIAWVRQMPGKGLEYMGLIYPGDSDTKYSPSFQGQVTISVDKSVSTAYLQWSSLKPSDSAVYFCARHDVGYCSSSNCAKWPEYFQHWGQGTLVTVSSGGGGSGGGGSGGGGSQSVLTQPPSVSAAPGQKVTISCSGSSSNIGNNYVSWYQQLPGTAPKLLIYGHTNRPAGVPDRFSGSKSGTSASLAISGFRSEDEADYYCAAWDYALWGWVFGGGTKLTVLG
610000
C6ML3-2 (scFv, C6.5 with this VL CDR3; C-terminal myc and His6 tags) scFv: QVQLLQSGAELKKPGESLKISCKGSGYSFTSYWIAWVRQMPGKGLEYMGLIYPGDSDTKYSPSFQGQVTISVDKSVSTAYLQWSSLKPSDSAVYFCARHDVGYCSSSNCAKWPEYFQHWGQGTLVTVSSGGGGSGGGGSGGGGSQSVLTQPPSVSAAPGQKVTISCSGSSSNIGNNYVSWYQQLPGTAPKLLIYGHTNRPAGVPDRFSGSKSGTSASLAISGFRSEDEADYYCAAWDHSLSGWVFGGGTKLTVLG
710000

Origin of the recorded values: patent US20060287509A1
